# Assay protocol: yeast display, Sf9 membrane polyspecificity reagent, FACS + sequencing; frameworks hold sequencing errors
Observable: polyreactivity (PSR sort gate)

* QVQLVESGGGLVQAGGSLRLSCAASGSIFGRYAMGWYRQAPGKERELVAAISSSGGRTYYADSVKGRFTISRDNAKNTVYLQMNSLKPEDTAVYYCNAGTPYRGDYWGQGTQVTVSS | high polyreactivity
* QVQLVESGGGLVQAGGSLRLSCAASGSIFGLYAMGWYRQAPGKERELVAAINQSGGSTSYADSVKGRFTISRDNAKNTVYLQMNSLKPEDTAVYYCNRVRLNTEGFDYWGQGTQVTVSS | low polyreactivity
* QVQLVESGGGLVQAGGSLRLSCAASGSTLHYYAMGWYRQAPGKERELVAAISATGGSTYYADSVKGRFTISRDNAKNTVYLQMNSLKPEDTAVYYCARTYRSHWVYTRLDYWGQGTQVTVSS | high polyreactivity
* QVQLVESGGGLVQAGGSLRLSCAASGIIFTFNARGWDRQAPGKERELVASISITGDTYYADSVKGRFTISRDNAKNTVYLQMNSLKPEDTAVYYCAAEYYFYSRHWYISYDYWGQGTQVTVSS | low polyreactivity
* QVKLVESGGGLVQAGGSLRLSCAASGTFYYNTMGWYIQAPGTERELVAAITSGGRTYADSVKGRFTISRDNAKNTVYLQMNSLKPEDTAVYYCAASWYFFSPGGTFGYWGQGTQVTVSS | low polyreactivity
